These data points were gathered from ChEMBL document CHEMBL1149822.

// values below are reported MIC
tested on: Escherichia coli; assay: Antibacterial activity against Escherichia coli ATTC 25922 after 16 to 18 hrs by serial plate dilution method; type: functional; conditions: ATCC25922
result-type: MIC (µg/mL)

- sample-smiles: "Cc1ccc(C2=Nn3c(nnc3-c3cc(Cl)cc(Cl)c3Cl)SC2)cc1"
  test-system: "Escherichia coli"
  observed-measurement: 6.25
- sample-smiles: "Clc1cc(Cl)c(Cl)c(-c2nnc3n2N=C(c2ccccc2)CS3)c1"
  test-system: "Escherichia coli"
  observed-measurement: 12
- sample-smiles: "Cc1cc(C)cc(-c2nn3c(-c4cc(Cl)cc(Cl)c4Cl)nnc3s2)c1"
  test-system: "Escherichia coli"
  observed-measurement: 6.25
- sample-smiles: "COc1ccc(-c2nn3c(-c4cc(Cl)cc(Cl)c4Cl)nnc3s2)cc1"
  test-system: "Escherichia coli"
  observed-measurement: 6.25
- sample-smiles: "Clc1cc(Cl)c(Cl)c(-c2nnc3sc(-c4cccc5cnccc45)nn23)c1"
  test-system: "Escherichia coli"
  observed-measurement: 12
- sample-smiles: "Clc1ccc(C2=Nn3c(nnc3-c3cc(Cl)cc(Cl)c3Cl)SC2)cc1"
  test-system: "Escherichia coli"
  observed-measurement: 6.25
- sample-smiles: "Cc1ccc(-c2nn3c(-c4cc(Cl)cc(Cl)c4Cl)nnc3s2)cc1"
  test-system: "Escherichia coli"
  observed-measurement: 12
- sample-smiles: "Clc1cc(Cl)c(Cl)c(-c2nnc3sc(COc4ccccc4)nn23)c1"
  test-system: "Escherichia coli"
  observed-measurement: 6.25
- sample-smiles: "Clc1cc(Cl)c(Cl)c(-c2nnc3sc(-c4cccc5ncccc45)nn23)c1"
  test-system: "Escherichia coli"
  observed-measurement: 6.25
- sample-smiles: "Clc1cc(Cl)c(Cl)c(-c2nnc3sc(-c4ccncc4)nn23)c1"
  test-system: "Escherichia coli"
  observed-measurement: 6.25
